target: DS-Cav1 (RSV F-protein, pre-form, in-house) (respiratory syncytial virus (RSV), UniProt P03420 26-513); assay: ELISA, coated DS-Cav1, IgG titrated
Sequence (P03420 26-524): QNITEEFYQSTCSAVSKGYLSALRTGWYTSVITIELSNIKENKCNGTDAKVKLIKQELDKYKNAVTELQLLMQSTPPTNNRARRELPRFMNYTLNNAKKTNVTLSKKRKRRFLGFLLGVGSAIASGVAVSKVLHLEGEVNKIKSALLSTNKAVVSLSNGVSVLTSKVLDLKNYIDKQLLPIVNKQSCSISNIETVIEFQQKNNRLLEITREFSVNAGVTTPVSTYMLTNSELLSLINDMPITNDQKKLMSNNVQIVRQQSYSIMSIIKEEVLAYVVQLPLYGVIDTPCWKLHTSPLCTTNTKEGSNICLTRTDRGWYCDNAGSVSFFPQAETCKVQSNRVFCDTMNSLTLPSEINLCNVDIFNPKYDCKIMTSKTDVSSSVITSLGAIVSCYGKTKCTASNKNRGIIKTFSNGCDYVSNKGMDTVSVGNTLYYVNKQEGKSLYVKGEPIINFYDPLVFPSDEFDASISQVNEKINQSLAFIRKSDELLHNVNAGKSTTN
pKd: −log10 of the molar value.
EXPERIMENTAL_ENDPOINT: pKd

Return reported pKd. Input binder: 2G1 (antibody, V domains shown, IgG made in Expi293; also called #21; 21) VH: QVTLKESGGGLVKPGGSLRLSCAASGFTFTSYRMHWVRQAPGKGLEWVSSITGGGNYIEYADSVKGRFTISRDNAKNSLDLQMNSLRAEDTAIYYCARDMYGLGSYYSPNYFDPWGQGTLVTVSS VL: QSVLTQPPSVSGAPGQRVTISCTGSSSNIGAGYDVHWYQQLPGTAPKLLIFGSTNRPSGVPDRFSGSKSGASASLAITGLQTEDEADYYCQSYDRSLSHVFGTGTKVTVLG
~9.26
